Values were extracted from patent US20250243171A1.

- measurement target: Ba/F3 stable cells (Homo sapiens, UniProt P00533, INS763FQEA, cells depend on it)
- Construct: EC50 Ba/F3-EGFR A763-Y764insFQEA; other: Ba/F3-EGFR A763-Y764insFQEA cells, 72 h, CCK-8
- Sequence (P00533 with tags, fused parts or gaps INS763FQEA): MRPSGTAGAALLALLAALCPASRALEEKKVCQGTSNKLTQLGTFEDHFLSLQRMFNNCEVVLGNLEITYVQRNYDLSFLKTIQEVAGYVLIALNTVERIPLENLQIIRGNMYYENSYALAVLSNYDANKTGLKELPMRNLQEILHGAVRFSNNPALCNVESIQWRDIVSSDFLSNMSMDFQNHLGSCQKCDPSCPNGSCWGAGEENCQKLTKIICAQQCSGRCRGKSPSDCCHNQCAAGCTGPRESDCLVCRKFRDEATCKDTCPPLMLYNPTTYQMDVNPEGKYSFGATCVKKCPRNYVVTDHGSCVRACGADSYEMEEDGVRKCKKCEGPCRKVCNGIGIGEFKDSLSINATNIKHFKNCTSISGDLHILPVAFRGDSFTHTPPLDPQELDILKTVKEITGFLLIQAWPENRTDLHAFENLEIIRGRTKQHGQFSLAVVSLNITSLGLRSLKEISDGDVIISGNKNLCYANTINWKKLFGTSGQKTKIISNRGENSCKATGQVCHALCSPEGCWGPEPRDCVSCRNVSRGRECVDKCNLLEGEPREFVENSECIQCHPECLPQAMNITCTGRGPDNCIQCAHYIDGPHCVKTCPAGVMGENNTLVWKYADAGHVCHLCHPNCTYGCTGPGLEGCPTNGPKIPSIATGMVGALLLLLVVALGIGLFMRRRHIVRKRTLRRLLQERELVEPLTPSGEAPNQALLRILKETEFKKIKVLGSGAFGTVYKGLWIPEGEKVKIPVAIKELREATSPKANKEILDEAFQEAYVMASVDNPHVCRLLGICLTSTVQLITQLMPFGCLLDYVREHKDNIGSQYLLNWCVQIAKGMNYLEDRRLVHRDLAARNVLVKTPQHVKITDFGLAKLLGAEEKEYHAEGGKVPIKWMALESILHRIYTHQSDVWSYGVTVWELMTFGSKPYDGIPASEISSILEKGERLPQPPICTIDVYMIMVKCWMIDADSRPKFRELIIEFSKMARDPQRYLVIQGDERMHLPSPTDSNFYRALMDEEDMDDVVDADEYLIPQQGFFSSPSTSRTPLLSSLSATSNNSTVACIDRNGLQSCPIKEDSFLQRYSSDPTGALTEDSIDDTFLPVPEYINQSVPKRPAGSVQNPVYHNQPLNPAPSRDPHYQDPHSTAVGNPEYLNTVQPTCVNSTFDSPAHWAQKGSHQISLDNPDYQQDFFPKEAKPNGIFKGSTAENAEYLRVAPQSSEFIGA
- assay overview: EC50 assay: Ba/F3 stable cell proliferation (CCK-8, 72 h)
- run parameters: Ba/F3-EGFR A763-Y764insFQEA cells
pEC50: −log10 of the molar value.
observable: pEC50

# example entries with known answers
[
  {
    "compound": "C=CC(=O)N1CC(c2cc3c(Nc4ccc(F)c5ccccc45)ncnc3cc2OC)C1",
    "pEC50": "≥ 6.70"
  },
  {
    "compound": "C=CC(=O)N1CC(Oc2c(OC)cc3ncnc4c3c2NC(=O)N4c2ccc(Cl)c(Cl)c2F)C1",
    "pEC50": "≥ 6.70"
  },
  {
    "compound": "C#CC(=O)N1C2CCC1CC(Oc1cc3c(Nc4cccc5c4CCC5)ncnc3cc1OC)C2 (stereo not shown)",
    "pEC50": "≥ 6.70"
  }
]

Let us move to another entry and its pEC50.
Reported pEC50 for C=CC(=O)N1CCC(Oc2cc3c(NCc4ccc(Cl)cc4)ncnc3cc2OC)CC1 : what is it?
≥ 6.70

---

- measurement target: Ba/F3 stable cells (Homo sapiens, UniProt P00533, DUP771-773, cells depend on it)
- Construct: EC50 Ba/F3-EGFR H773-V774insNPH; other: Ba/F3-EGFR H773-V774insNPH cells, 72 h, CCK-8
- Sequence (P00533 with tags, fused parts or gaps DUP771-773): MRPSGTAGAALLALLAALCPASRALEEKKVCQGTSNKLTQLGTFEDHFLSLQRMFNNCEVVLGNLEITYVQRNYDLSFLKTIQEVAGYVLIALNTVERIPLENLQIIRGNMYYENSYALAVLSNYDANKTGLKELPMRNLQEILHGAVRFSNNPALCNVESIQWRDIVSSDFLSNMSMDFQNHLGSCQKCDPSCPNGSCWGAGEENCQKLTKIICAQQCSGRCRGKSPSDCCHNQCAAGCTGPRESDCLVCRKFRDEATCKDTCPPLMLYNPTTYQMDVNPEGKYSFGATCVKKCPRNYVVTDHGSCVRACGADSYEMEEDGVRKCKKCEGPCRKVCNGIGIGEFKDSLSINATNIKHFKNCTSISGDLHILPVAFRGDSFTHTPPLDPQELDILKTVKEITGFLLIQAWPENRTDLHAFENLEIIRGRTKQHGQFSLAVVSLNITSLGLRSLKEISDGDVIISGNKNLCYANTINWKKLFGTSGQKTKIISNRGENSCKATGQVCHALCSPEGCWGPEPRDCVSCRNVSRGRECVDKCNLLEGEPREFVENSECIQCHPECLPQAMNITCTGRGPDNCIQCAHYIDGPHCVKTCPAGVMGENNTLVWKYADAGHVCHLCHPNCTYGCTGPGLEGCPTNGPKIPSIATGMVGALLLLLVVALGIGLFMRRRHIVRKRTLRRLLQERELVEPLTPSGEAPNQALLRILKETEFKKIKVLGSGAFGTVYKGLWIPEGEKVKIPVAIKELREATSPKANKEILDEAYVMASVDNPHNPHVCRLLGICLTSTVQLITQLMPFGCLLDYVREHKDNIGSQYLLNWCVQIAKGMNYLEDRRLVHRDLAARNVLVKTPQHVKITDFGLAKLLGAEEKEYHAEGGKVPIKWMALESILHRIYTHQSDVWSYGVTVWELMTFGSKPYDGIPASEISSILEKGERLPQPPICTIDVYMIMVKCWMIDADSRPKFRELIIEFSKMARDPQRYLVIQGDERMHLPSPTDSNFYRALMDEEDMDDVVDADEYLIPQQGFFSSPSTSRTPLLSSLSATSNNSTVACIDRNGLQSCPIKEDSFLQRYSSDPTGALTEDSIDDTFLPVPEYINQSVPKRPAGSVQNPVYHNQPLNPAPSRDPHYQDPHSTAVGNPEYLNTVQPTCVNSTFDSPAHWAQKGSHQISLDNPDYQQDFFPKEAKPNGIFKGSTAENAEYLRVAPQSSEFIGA
- assay overview: EC50 assay: Ba/F3 stable cell proliferation (CCK-8, 72 h)
- run parameters: Ba/F3-EGFR H773-V774insNPH cells
pEC50: −log10 of the molar value.
observable: pEC50

# example entries with known answers
[
  {
    "molecule": "C=CS(=O)(=O)N1CCC(Oc2cc3c(Nc4ccc(Cl)c(Cl)c4F)ncnc3cc2OC)CC1 [Compound 192]",
    "endpoint value": "≥ 6.70"
  },
  {
    "molecule": "C=CC(=O)N1CCC(Oc2cc3c(C(=O)N[C@H](C)c4ccc(F)cc4)ncnc3cc2OC)CC1 [Compound 95]",
    "endpoint value": "< 6.00"
  },
  {
    "molecule": "C#CC(=O)N1CCC(Oc2cc3c(Nc4ccc5ccccc5c4)ncnc3cc2OC)CC1 [Compound 53]",
    "endpoint value": "≥ 6.70"
  },
  {
    "molecule": "C=CC(=O)NC1CC(Oc2cc3c(Nc4cccc5ccccc45)ncnc3cc2OC)C1 (stereo not shown) [Compound 81]",
    "endpoint value": "6.00 to 6.70"
  },
  {
    "molecule": "C=CC(=O)N[C@H]1C[C@H](Oc2cc3c(Nc4ccccc4F)ncnc3cc2OC)C1 [Compound 77]",
    "endpoint value": "6.00 to 6.70"
  }
]

Reported pEC50 for C=CC(=O)N1CCC(Oc2cc3c(NC(CC(=O)O)c4cccc(Cl)c4)ncnc3cc2OC)CC1 (stereo not shown) [Compound 129] : what is it?
< 6.00

Reported pEC50 for C=CC(=O)N1CCC(Oc2cc3c(Nc4ccc5c(ccn5C)c4)ncnc3cc2OC)CC1 [Compound 170] : what is it?
6.00 to 6.70

Reported pEC50 for C=CC(=O)NC1CC(Oc2cc3c(NCc4ccc(F)cc4)ncnc3cc2OC)C1 (stereo not shown) [Compound 84] : what is it?
< 6.00

Reported pEC50 for C=CC(=O)N1CCC(Oc2cc3c(NC(=O)c4ccc(F)cc4)ncnc3cc2OC)CC1 [Compound 98] : what is it?
< 6.00

Reported pEC50 for C=CC(=O)N[C@H]1CC[C@@H](Oc2cc3c(Nc4ccc(Cl)c(Cl)c4F)ncnc3cc2OC)CC1 [Compound 90] : what is it?
6.00 to 6.70

Reported pEC50 for C=CC(=O)N1CC(c2cc3c(Nc4ccc(Cl)c(Cl)c4F)ncnc3cc2OCCN2CCOCC2)C1 [Compound 28] : what is it?
≥ 6.70

Reported pEC50 for C=CC(=O)N1CC(c2cc3c(Nc4ccc5ccccc5c4)ncnc3cc2OC)C1 [Compound 5] : what is it?
6.00 to 6.70

Reported pEC50 for C=CC(=O)N1CCCC(c2cc3c(Nc4ccc(Cl)c(Cl)c4F)ncnc3cc2OC)C1 (stereo not shown) [Compound 185] : what is it?
≥ 6.70

Reported pEC50 for C=CC(=O)N[C@H]1C[C@@H](Oc2cc3c(Nc4ccc(Cl)c(Cl)c4F)ncnc3cc2OCC)C1 [Compound 105] : what is it?
≥ 6.70

Reported pEC50 for C=CC(=O)N1CC(c2cc3c(Nc4ccc(F)c(Cl)c4F)ncnc3cc2OC)C1 [Compound 16] : what is it?
≥ 6.70

Reported pEC50 for C=CC(=O)NC1CC(Oc2cc3c(Nc4ccc5c(c4)CCCC5O)ncnc3cc2OC)C1 (stereo not shown) [Compound 71] : what is it?
< 6.00
